B1: FEM1A (parent)
chain: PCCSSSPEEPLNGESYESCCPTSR

Variants of: B1
Assay: protein stability index of a GFP-peptide fusion (GPS, HEK-293T) (PSI 1-6); higher = more stable;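 note: lentivirally expressed fusions sorted by FACS into six bins by GFP to DsRed ratio, PSI derived from sequencing read proportions per bin multiplied by bin number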
Conditions: c terminus: a fixed tail appended
Readout Name: protein stability index

Examples with answers:
1) C2I :: 3.92
2) S23M :: 4.05

Quick one: give me protein stability index for each item below, same order please.
1. S18I
2. E8I
3. P10N
4. S4N

Key:
3.03
3.06
2.96
3.95
